molecular target: Transient receptor potential cation channel subfamily M member 7 (Mus musculus) (UniProt Q923J1); test: Inhibition of Tet-induced Flag-tagged mouse TRPM7 expressed in HEK293 cells assessed as inhibition of channel-mediated cell death in presence of Mg2+ incubated for 24 to 48 hrs by propidium iodide uptake assay; assay type: cell-based; set-up: concentration or dose not given beside the values; settings: concentration not given here
Sequence (Q923J1 whole entry): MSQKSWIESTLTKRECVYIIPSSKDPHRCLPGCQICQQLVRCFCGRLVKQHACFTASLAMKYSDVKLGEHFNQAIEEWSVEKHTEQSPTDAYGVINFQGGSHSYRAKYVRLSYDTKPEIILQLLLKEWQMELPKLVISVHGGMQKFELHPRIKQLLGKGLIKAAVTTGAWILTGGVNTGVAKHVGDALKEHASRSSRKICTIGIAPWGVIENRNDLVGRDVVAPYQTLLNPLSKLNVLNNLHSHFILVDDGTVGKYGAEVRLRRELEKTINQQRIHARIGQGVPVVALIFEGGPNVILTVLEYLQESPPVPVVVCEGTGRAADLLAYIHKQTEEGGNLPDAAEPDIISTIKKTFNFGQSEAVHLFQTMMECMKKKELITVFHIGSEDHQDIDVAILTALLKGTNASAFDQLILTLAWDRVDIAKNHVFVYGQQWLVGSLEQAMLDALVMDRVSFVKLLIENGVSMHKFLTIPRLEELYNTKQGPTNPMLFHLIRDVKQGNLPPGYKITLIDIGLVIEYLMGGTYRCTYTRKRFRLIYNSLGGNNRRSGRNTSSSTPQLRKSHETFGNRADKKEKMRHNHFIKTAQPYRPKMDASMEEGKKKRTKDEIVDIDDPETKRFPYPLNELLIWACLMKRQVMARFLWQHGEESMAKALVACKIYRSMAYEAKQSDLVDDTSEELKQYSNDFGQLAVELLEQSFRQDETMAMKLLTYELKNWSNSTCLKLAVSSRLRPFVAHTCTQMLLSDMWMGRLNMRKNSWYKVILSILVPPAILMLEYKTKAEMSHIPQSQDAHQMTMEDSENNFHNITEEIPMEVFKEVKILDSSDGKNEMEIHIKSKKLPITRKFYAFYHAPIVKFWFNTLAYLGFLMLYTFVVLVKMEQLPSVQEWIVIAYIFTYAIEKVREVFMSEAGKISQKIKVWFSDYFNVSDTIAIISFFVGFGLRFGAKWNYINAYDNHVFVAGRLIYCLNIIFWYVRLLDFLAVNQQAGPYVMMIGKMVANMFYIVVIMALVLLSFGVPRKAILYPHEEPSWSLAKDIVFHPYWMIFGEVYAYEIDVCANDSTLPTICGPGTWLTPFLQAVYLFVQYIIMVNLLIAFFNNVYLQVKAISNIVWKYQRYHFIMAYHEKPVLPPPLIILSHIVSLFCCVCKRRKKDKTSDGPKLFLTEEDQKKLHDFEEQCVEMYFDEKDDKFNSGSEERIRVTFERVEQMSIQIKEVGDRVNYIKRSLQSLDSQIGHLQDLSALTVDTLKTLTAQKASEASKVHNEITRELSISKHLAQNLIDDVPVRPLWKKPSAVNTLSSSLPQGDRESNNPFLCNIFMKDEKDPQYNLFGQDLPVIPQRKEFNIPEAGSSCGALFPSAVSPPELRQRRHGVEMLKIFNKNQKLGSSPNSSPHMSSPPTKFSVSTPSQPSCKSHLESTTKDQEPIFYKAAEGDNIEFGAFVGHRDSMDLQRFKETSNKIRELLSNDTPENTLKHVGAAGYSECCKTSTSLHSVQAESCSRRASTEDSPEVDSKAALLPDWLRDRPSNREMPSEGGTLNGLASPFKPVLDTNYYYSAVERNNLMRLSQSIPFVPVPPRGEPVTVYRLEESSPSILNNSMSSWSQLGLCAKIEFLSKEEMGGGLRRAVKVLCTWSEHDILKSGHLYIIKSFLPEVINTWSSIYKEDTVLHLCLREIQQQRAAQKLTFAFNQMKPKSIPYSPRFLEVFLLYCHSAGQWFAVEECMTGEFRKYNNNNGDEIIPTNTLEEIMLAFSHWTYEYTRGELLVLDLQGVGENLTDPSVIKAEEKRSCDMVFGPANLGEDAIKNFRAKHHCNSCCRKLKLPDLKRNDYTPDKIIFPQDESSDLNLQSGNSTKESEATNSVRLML
Parameter threshold = 70%. Response is 1.0 when inhibition meets or exceeds it, else 0.0.

>>> labelclass("Cc1nc(N/C=N/O)c(Br)cc1Br")
0.0
>>> labelclass("CSc1nccc(-c2ccc(S(=O)(=O)n3nc(C)c(Br)c3C)s2)n1")
0.0
>>> labelclass("N#Cc1ccc2[nH]cc(CCN(Cc3ccccc3)Cc3ccccc3)c2c1")
0.0
>>> labelclass("N#C/C(=N\\Nc1ccc(Cl)cc1)C(N)=S")
0.0

Ask | Could you tell me if the measured inhibition of `COc1c(C(C)(C)C)cc(/N=C/c2ccccc2O)c(C)c1/N=C/c1ccccc1O` reaches 70% or more?
Reply | 0.0

Ask | Could you tell me if the measured inhibition of `CC(C)(C)c1cc2nc(C(F)(F)F)cc(N3CCN(S(=O)(=O)c4ccccc4)CC3)n2n1` reaches 70% or more?
Reply | 0.0

Ask | Could you tell me if the measured inhibition of `COc1ccc(OC)c(SCc2nnc(-c3ccc([N+](=O)[O-])c(C)c3)o2)c1` reaches 70% or more?
Reply | 1.0

Ask | Could you tell me if the measured inhibition of `Clc1ccc(CO/N=C/c2nc3ccccc3s2)cc1` reaches 70% or more?
Reply | 0.0

Ask | Could you tell me if the measured inhibition of `COc1ccccc1C1CCN(Cc2c[nH]nc2-c2ccccc2)CC1` reaches 70% or more?
Reply | 1.0

====

Would you mind telling me the reported inhibition of each entry?
target: Transient receptor potential cation channel subfamily M member 7 (Mus musculus); assay: Inhibition of Tet-induced Flag-tagged mouse TRPM7 expressed in HEK293 cells assessed as inhibition of channel-mediated cell death in presence of Mg2+ incubated for 24 to 48 hrs by propidium iodide uptake assay; assay type: cell-based; set-up: concentration or dose not given beside the values; settings: concentration not given here
One number for each entry, in %.

Examples with answers:
>>> obsvalue("OC(CN1CCN(C(c2ccccc2)c2ccccc2)CC1)c1ccccc1 (stereo unspecified)")
60
>>> obsvalue("CC(C)(C)NC(=O)CSc1nnc([C@H](Cc2ccccc2)NC(=O)OC(C)(C)C)o1")
30
>>> obsvalue("O=[N+]([O-])c1ccc(Nc2cccc(F)c2)c2nonc12")
40
>>> obsvalue("Fc1ccc(N2CCN(Cc3c[nH]c(-c4ccccc4)n3)CC2)cc1")
70
>>> obsvalue("CCCCCNC(=S)NNC(=O)OCC")
60
>>> obsvalue("O=C(NC(=O)c1c(Cl)cccc1Cl)Nc1nc2cc(Cl)ccc2s1")
50
>>> obsvalue("O=C1/C(=C\\c2ccc3c(c2)OCO3)C(c2ccccc2)Oc2ccccc21 (stereo unspecified)")
50
>>> obsvalue("O=C(c1ccc(F)cc1)C1CCN(Cc2c[nH]c(-c3ccccc3)n2)CC1")
30

Now for another entry.
Ask | Give the reported inhibition for this compound. `CC(C)NC(=O)c1cc(-c2cccs2)on1`
Reply | 30

====

target: Transient receptor potential cation channel subfamily M member 7 (Mus musculus); experiment: Inhibition of Tet-induced Flag-tagged mouse TRPM7 expressed in HEK293 cells assessed as inhibition of channel-mediated cell death in presence of Mg2+ incubated for 24 to 48 hrs by propidium iodide uptake assay; type: cell-based; parameters: concentration or dose not given beside the values; details: concentration not given here
Would you mind telling me the reported inhibition of each entry?
Answers are plain numbers, in %.

Examples with answers:
>>> obsvalue("CC(C)Cc1ccc(C(C)c2nnc(-c3cccc([N+](=O)[O-])c3)o2)cc1 (centres undefined)")
50
>>> obsvalue("CCOC(=O)C(=CNNS(=O)(=O)c1cc(C(F)(F)F)cc(C(F)(F)F)c1)C(=O)OCC")
40
>>> obsvalue("Cc1csc2ncnc(N3CCN(C(=O)Nc4ccc(OC(F)(F)F)cc4)CC3)c12")
50
>>> obsvalue("COc1ccccc1C1CCN(S(=O)(=O)c2ccc(C(C)C)cc2)CC1")
80
>>> obsvalue("C=C(C(=O)OC)C(O)c1ccc(Br)cc1 (centres undefined)")
60
>>> obsvalue("O=S(=O)(c1cccc(Cl)c1)N1CCC(O)(c2ccc(Cl)cc2)CC1")
70
>>> obsvalue("CCOC(=O)c1c(C)n(-c2ccccc2)c2ccc(OC(=O)C(c3ccccc3)C3CCCC3)cc12 (centres undefined)")
30
>>> obsvalue("NNC(=O)CSc1ccccc1[N+](=O)[O-]")
40

Provide each entry's inhibition from the list below.
1. CCOC(=O)c1c(C)csc1NC(=O)CSc1ccc(Cl)cc1
2. CCOC(=O)c1c(-n2c(C)ccc2C)sc2c1CCCC2

Reply |
[50, 70]

Provide each entry's inhibition from the list below.
1. FC(F)(F)c1cccc(OCc2ccc(-c3ncns3)cc2)c1
2. NC(=O)C1CCN(CCS(=O)(=O)c2ccccc2)CC1
3. CCOC(=O)c1cc(C)nn1C(=O)c1ccccc1Cl
4. CCOC(=O)c1nn(-c2cccc(Cl)c2)cc(Sc2ccc(Cl)cc2)c1=O
5. O=C(NNC(=S)Nc1cc(Cl)ccc1Cl)C(O)(c1ccccc1)c1ccccc1
6. COc1ccc2c(c1)CCCN2C(=O)c1sc2ccccc2c1Cl
7. O=C(Nc1cccc(C(F)(F)F)c1)Nc1nnc(C2CC2)s1
8. COc1cc2c(cc1OC)C(C(=O)c1sc3ccccc3c1Cl)=NCC2

Reply |
1. 50
2. 30
3. 30
4. 40
5. 50
6. 60
7. 50
8. 80

Provide each entry's inhibition from the list below.
1. Cc1onc(-c2c(Cl)cccc2Cl)c1/C=C1/C(=O)Nc2ccccc21
2. FC(F)(F)COc1ccc(-c2nc(-c3ccc(Cl)cc3)cs2)cn1
3. Fc1ccc(CN2CCN(Cc3c[nH]c4ccccc34)CC2)cc1
4. COc1cc2c(cc1OCC(=O)Nc1ccc(C)cc1)C=CC(C)(C)O2
5. COc1ccc(NC(=S)Nc2ccc(C)c(NS(C)(=O)=O)c2)cc1

Reply |
1. 30
2. 50
3. 70
4. 30
5. 70

Provide each entry's inhibition from the list below.
1. N#C/C(=N\Nc1cccc(C(F)(F)F)c1)C(=O)c1csc(-c2cccnc2)n1
2. O=C(Nc1ccc(F)cc1)C(Sc1ccc(Cl)cc1)c1ccccc1 (centres undefined)
3. c1ccc(CSc2nccc(-c3ccc4c(c3)CCO4)n2)cc1
4. O=C(CCSCc1ccc(Cl)cc1)Nc1ccc(Cl)cc1
5. Brc1cn[nH]c1/C=N/Nc1nc(-c2ccccc2)cs1

Reply |
[60, 80, 70, 60, 50]
